Provenance of the data: patent US12540136B2

Test system: MT-4 cells
ASSAY REMARKS: Cytotoxicity, MTS dye reduction assay
Type: cell-based
EXPERIMENTAL ENDPOINT: CC50

Query string: For the compound shown here, Cc1nc([C@@H](OC(C)(C)C)c2c(C)nc3c(c(C)c(C)n3Cc3cnn(C)c3)c2-c2ccc(Cl)cc2)no1 [Example 13] , give the reported CC50.
Result string: > 10 µM

---

System: MT-4 cells
ASSAY REMARKS: Cytotoxicity, MTS dye reduction assay
Format: cell-based
CONDITION DETAILS: MT-4 cells, MTS dye reduction, 6 days incubation; read-out: CC50, HIV-1(NL4-3) in MT-4 Cells
Description: In order to determine the HIV-1 (Wild type) inhibitory effect of compounds of the present invention, a test was conducted as follows. The host cell was MT-4 cells and the virus strain was NL4-3 strain of HIV-1. […] The antiviral effect was measured as a percentage decrease in viral cytopathic effect (CPE), and the cytotoxicity of the compounds was evaluated by MTS (CellTiter® 96 Reagent, Promega, Madison WI) dye reduction assay. […]
EXPERIMENTAL ENDPOINT: CC50

Query string: Any idea what CC50 was measured for Cc1nc2c(c(C)c(C)n2Cc2cnn(C)c2)c(-c2ccc(Cl)cc2)c1[C@H](OC(C)(C)C)/C(N)=N/O [Example 12] ?
Result string: > 10 µM
